Collected TGI values appear next to each entry.
- System: CCRF-CEM leukemia
- assay notes: NCI tumour cell line growth inhibition, 48 h
recorded endpoint: TGI (µM)

| compound | recorded endpoint | censoring operator | meas value |
| --- | --- | --- | --- |
| CNC(=S)N/N=C/CSC/C=N/NC(=S)NC | TGI | > | 100 |
| C/C(=N\NC(N)=S)c1ccc(Oc2ccccc2)cc1 | TGI | = | 37.2 |
| COC(=O)c1c(O)ccc2c1c1c(n2CCc2ccccc2)C(=O)c2ccccc2C1 | TGI | = | 60.6 |
| COc1cc(N(CCC#N)CCC#N)ccc1/C(N=Nc1cccc([N+](=O)[O-])c1)=N\NC(=O)c1ccc(C)cc1 | TGI | = | 99.2 |
| C/C(=C\COP(=O)(O)CP(=O)(O)O)CC/C=C(\C)CNc1ccccc1 | TGI | > | 100 |
| C/C=C/C(C/C=C(\C)CO[Si](C)(C)C(C)(C)C)O[Si](C)(C)C(C)(C)C (stereo not given) | TGI | > | 100 |
| O=c1oc2cc(O)ccc2c(O)c1C(c1ccc(/C=C/c2ccccc2)cc1)c1c(O)c2ccc(O)cc2oc1=O | TGI | > | 100 |
| COC(=O)N1C=Cc2c(c(C)c3c([nH]c4ccccc43)c2C)C1C (stereo not given) | TGI | = | 54.4 |
| CC(C)CC(=O)O[C@H]1C(=O)O[C@@H]2C[C@H]3[C@H](C)C(=O)C(O[C@@H]4O[C@H](CO)[C@@H](O)[C@H](O)[C@H]4O)=C[C@]3(C)[C@H]3[C@@H](O)[C@H](O)[C@]4(C(=O)O)OC[C@]32[C@@H]14 | TGI | = | 83.6 |
| O=C1/C(=C/c2ccc(Cl)cc2)NC(=S)N1CN1CCCCC1 | TGI | = | 78.2 |

====

- Tested on: MDA-MB-231 breast
- assay notes: NCI tumour cell line growth inhibition, 48 h; in the data active = GI50 below about 0.43 µM; inactive = the rest
Outcomes: active, inactive

| molecule | study system | label class |
| --- | --- | --- |
| CC1SC(c2ccc(OCc3ccccc3)cc2)N(NC(=O)C(O)(c2ccccc2)c2ccccc2)C1=O (centres undefined) | MDA-MB-231 breast | inactive |
| CN1CC[C@H](N(C)C(=O)N2CC(c3cc(F)ccc3F)=C[C@@]2(CO)c2ccccc2)[C@H](F)C1 | MDA-MB-231 breast | active |
| Cc1ccccc1C1N=C2Oc3ccccc3C=C2C(=O)N1 (centres undefined) | MDA-MB-231 breast | inactive |
| CC/C(=C\c1ccc(N(C)C)cc1)c1ccncc1 | MDA-MB-231 breast | inactive |

====

- System: SNB-75 CNS
- assay notes: NCI tumour cell line growth inhibition, 48 h

| compound | TGI |
| --- | --- |
| CC(C)CC(=O)O[C@H]1C(=O)O[C@@H]2C[C@H]3[C@H](C)C(=O)C(O[C@@H]4O[C@H](CO)[C@@H](O)[C@H](O)[C@H]4O)=C[C@]3(C)[C@H]3[C@@H](O)[C@H](O)[C@]4(C(=O)O)OC[C@]32[C@@H]14 | > 100 µM |
| CC(=O)OCC1OC(Sc2nc(-c3ccccc3)c(C#N)c(=O)n2C2OC(COC(C)=O)C(OC(C)=O)C(OC(C)=O)C2OC(C)=O)C(OC(C)=O)C(OC(C)=O)C1OC(C)=O (centres undefined) | > 100 µM |
| C#CC[C@]12CC(=O)CC[C@H]1CC1(C2)OCCO1 | > 100 µM |
| O=C1OCC2=C1C(c1ccc(Cl)cc1)c1cc3c(cc1O2)OCO3 (centres undefined) | > 100 µM |
| CC(C)OP(=O)(OC(C)C)C(=Nc1ccc(N=C(NNc2ccc([N+](=O)[O-])cc2)P(=O)(OC(C)C)OC(C)C)cc1)NNc1ccc([N+](=O)[O-])cc1 | > 100 µM |
| COc1ccc2c(c1)OCC1c3cc(OC)ccc3OC21 (centres undefined) | > 100 µM |
| CSC(SC)=C1Sc2cccc(Cl)c2S1 | > 100 µM |
| O=C(O)OC12CCCCCC1C(=O)C1CCCCC12 (centres undefined) | > 100 µM |
| CCOc1ccc(/C=C/C(=O)c2sc(NNC(C)=O)nc2C)cc1 | > 100 µM |
| Nc1nc(NCc2ccccc2)cc(NCc2ccccc2)n1 | 13.1 µM |
| C(#C[C@@]12CCC[C@@H]1NCO2)c1ccc2c(c1)OCO2 | > 100 µM |
| CC1CC(=O)C(CC(=O)O)[C@H]1C(C(=O)C(=O)Nc1cc(Cl)ccc1Cl)[N+](=O)[O-] (some centres undefined) | > 100 µM |
| CSc1cnc2ccccc2c1Sc1cn(C)c2ccccc2c1=O | 46.8 µM |
| COC(=O)C#CC1(O)C=CC(=O)C=C1 | 18.1 µM |
